measured-target: CCR2 (Homo sapiens (Human), UniProt P41597)
Sequence (P41597 whole entry, species assumed): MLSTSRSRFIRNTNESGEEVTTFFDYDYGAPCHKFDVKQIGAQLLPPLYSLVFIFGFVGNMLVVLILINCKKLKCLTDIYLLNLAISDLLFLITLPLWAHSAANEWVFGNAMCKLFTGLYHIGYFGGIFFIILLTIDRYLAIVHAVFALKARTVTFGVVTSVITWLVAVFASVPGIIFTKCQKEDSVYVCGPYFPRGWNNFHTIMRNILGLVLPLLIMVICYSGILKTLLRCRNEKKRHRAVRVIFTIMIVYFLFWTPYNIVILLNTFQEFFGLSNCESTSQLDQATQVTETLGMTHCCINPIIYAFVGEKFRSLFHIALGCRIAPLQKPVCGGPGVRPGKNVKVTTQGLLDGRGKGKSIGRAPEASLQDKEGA
assay-comment: Calcium activity assayed on the FLIPR Tetra in HEK-Gqi5 cells stably expressing CCR2
condition-set: FLIPR Tetra calcium assay
pIC50: −log10 of the molar value.
Decision: pIC50 >= 6 yields met, all other cases yield not met.

Check the entry CC(C)(C)OC(=O)Nc1cc(CS(=O)(=O)c2ccc(Cl)cc2NS(=O)(=O)c2cc3ccccc3o2)ccn1 : does pIC50 equal or exceed 6? not met

Now give it for Nc1cccc(C[S+]([O-])c2ccc(Cl)cc2NS(=O)(=O)c2cccc(Cl)c2)c1 (stereo not drawn) too. met

Also O=S(=O)(Nc1cc(Cl)ccc1[S+]([O-])CCO)c1ccc(Cl)c(C(F)(F)F)c1 (stereo not drawn) ? met

Another molecule: CN(C)C(=O)CCS(=O)(=O)c1ccc(Cl)cc1NS(=O)(=O)c1ccc(Cl)c(C(F)(F)F)c1 met

Same read-out for C[S+]([O-])c1ccc(Cl)cc1NS(=O)(=O)c1ccco1 (stereo not drawn) ? not met

Also check CS(=O)(=O)c1ccc(Cl)cc1NS(=O)(=O)c1ccc(Br)cc1 met

Moving on to the next molecule: O=C1NCC(CS(=O)(=O)c2ccc(Cl)cc2NS(=O)(=O)c2cc3ccccc3o2)O1 (stereo not drawn) not met
